Method notes: Plasma stability
Assay type: in vitro ADME, rat
Measurement setup: Table 6; rat plasma, 1 h
Attribute: Plasma stability (T = 1 h)
Returns: string containing the number followed by the unit.

Known Plasma stability (T = 1 h) results, listed for orientation:
Cc1cc2c(C(C)C)c(O)c(O)cc2c(O)c1-c1c(C)cc2c(C(C)C)c(O)c(O)cc2c1O [Apogossypol, reference compound]
53%
Cc1cc2c(C(=O)NCCc3ccccc3)c(O)c(O)cc2c(O)c1-c1c(C)cc2c(C(=O)NCCc3ccccc3)c(O)c(O)cc2c1O
63%
Cc1cc2c(C(=O)NC(C)c3ccc(Cl)cc3)c(O)c(O)cc2c(O)c1-c1c(C)cc2c(C(=O)NC(C)c3ccc(Cl)cc3)c(O)c(O)cc2c1O (centres unmarked)
94%
CCc1ccc(CCNC(=O)c2c(O)c(O)cc3c(O)c(-c4c(C)cc5c(C(=O)NCCc6ccc(CC)cc6)c(O)c(O)cc5c4O)c(C)cc23)cc1
94%
Cc1cc2c(CC3CCCC3)c(O)c(O)cc2c(O)c1-c1c(C)cc2c(CC3CCCC3)c(O)c(O)cc2c1O [Compound 12c]
81%

Record Cc1cc2c(CCc3ccccc3)c(O)c(O)cc2c(O)c1-c1c(C)cc2c(CCc3ccccc3)c(O)c(O)cc2c1O [Compound 12e] , field Plasma stability (T = 1 h): 80%

Record Cc1cc2c(C(=O)NCC(C)c3ccccc3)c(O)c(O)cc2c(O)c1-c1c(C)cc2c(C(=O)NCC(C)c3ccccc3)c(O)c(O)cc2c1O (centres unmarked) , field Plasma stability (T = 1 h): 96%

Record `Cc1cc2c(C(=O)NCC3CCCCC3)c(O)c(O)cc2c(O)c1-c1c(C)cc2c(C(=O)NCC3CCCCC3)c(O)c(O)cc2c1O` , field Plasma stability (T = 1 h): 89%

---

Method notes: PAMPA cell membrane permeability
Assay type: in vitro ADME
Measurement setup: Table 11; Low/Medium, not defined
Observation type: Cell Permeability

Cc1cc2c(C(=O)Cc3ccccc3)c(O)c(O)cc2c(O)c1-c1c(C)cc2c(C(=O)Cc3ccccc3)c(O)c(O)cc2c1O
Medium
Cc1cc2c(C(=O)c3cccc4ccccc34)c(O)c(O)cc2c(O)c1-c1c(C)cc2c(C(=O)c3cccc4ccccc34)c(O)c(O)cc2c1O
Low
Cc1cc2c(C(=O)C3CCCC3)c(O)c(O)cc2c(O)c1-c1c(C)cc2c(C(=O)C3CCCC3)c(O)c(O)cc2c1O
Low
Cc1cc2c(C(=O)c3nc4ccccc4s3)c(O)c(O)cc2c(O)c1-c1c(C)cc2c(C(=O)c3nc4ccccc4s3)c(O)c(O)cc2c1O
Medium
Cc1cc2c(C(=O)C(C)(C)C)c(O)c(O)cc2c(O)c1-c1c(C)cc2c(C(=O)C(C)(C)C)c(O)c(O)cc2c1O
Medium

Now for another entry.
Record Cc1cc2c(C(C)C)c(O)c(O)cc2c(O)c1-c1c(C)cc2c(C(C)C)c(O)c(O)cc2c1O [Apogossypol, reference compound] , field Cell Permeability: Low

---

Measured on: BCL-XL (Homo sapiens, UniProt Q07817)
Sequence (Q07817 whole entry): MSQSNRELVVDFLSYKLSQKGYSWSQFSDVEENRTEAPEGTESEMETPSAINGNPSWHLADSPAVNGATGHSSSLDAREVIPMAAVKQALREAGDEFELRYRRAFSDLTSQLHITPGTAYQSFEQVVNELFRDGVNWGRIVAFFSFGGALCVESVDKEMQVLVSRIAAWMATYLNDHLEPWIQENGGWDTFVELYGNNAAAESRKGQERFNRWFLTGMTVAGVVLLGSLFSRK
Method notes: 1D 1H-NMR binding assay
Parameters: key: +++, Very Active; ++, Active; +, Mild; −, Weak
Measurement setup: Table 3; BCL-XL 25 μM, compound 200 μM
Observation type: 1D-^1H NMR

Known 1D-^1H NMR results, listed for orientation:
Cc1cc2c(C(=O)Nc3ccc(Oc4ccccc4)cc3)c(O)c(O)cc2c(O)c1-c1c(C)cc2c(C(=O)Nc3ccc(Oc4ccccc4)cc3)c(O)c(O)cc2c1O
+
Cc1cc2c(C(=O)Nc3cccc(C(F)(F)F)c3)c(O)c(O)cc2c(O)c1-c1c(C)cc2c(C(=O)Nc3cccc(C(F)(F)F)c3)c(O)c(O)cc2c1O
+
Cc1cc2c(C(=O)NC3Cc4ccccc4C3)c(O)c(O)cc2c(O)c1-c1c(C)cc2c(C(=O)NC3Cc4ccccc4C3)c(O)c(O)cc2c1O
++
Cc1cc2c(C(=O)NCC(C)c3ccccc3)c(O)c(O)cc2c(O)c1-c1c(C)cc2c(C(=O)NCC(C)c3ccccc3)c(O)c(O)cc2c1O (stereo not shown)
++
Cc1cc2c(C(=O)NCCc3cccc(Cl)c3)c(O)c(O)cc2c(O)c1-c1c(C)cc2c(C(=O)NCCc3cccc(Cl)c3)c(O)c(O)cc2c1O
+++

Record `Cc1cc2c(C(=O)NCc3cccc(Cl)c3)c(O)c(O)cc2c(O)c1-c1c(C)cc2c(C(=O)NCc3cccc(Cl)c3)c(O)c(O)cc2c1O` , field 1D-^1H NMR: +++

Record `Cc1cc2c(C(=O)NCC3CC3)c(O)c(O)cc2c(O)c1-c1c(C)cc2c(C(=O)NCC3CC3)c(O)c(O)cc2c1O` , field 1D-^1H NMR: +

Record CCC(NC(=O)c1c(O)c(O)cc2c(O)c(-c3c(C)cc4c(C(=O)NC(CC)c5ccccc5)c(O)c(O)cc4c3O)c(C)cc12)c1ccccc1 (stereo not shown) , field 1D-^1H NMR: +++

Record CC(=O)O.Cc1cc2c(C(C)C)c(O)c(O)c(C=O)c2c(O)c1-c1c(C)cc2c(C(C)C)c(O)c(O)c(C=O)c2c1O [Gossypol, reference compound] , field 1D-^1H NMR: +++

Record `Cc1cc2c(C(=O)NCCc3ccc(Cl)cc3)c(O)c(O)cc2c(O)c1-c1c(C)cc2c(C(=O)NCCc3ccc(Cl)cc3)c(O)c(O)cc2c1O` , field 1D-^1H NMR: ++

---

Method notes: Liver microsomal stability
Assay type: in vitro ADME, rat
Measurement setup: Table 6; rat liver microsomes, 1 h
Text: Liver Microsomal Stability.
Attribute: Microsomal Stability (T = 1 h)
State just the number; it will be interpreted in %.

Cc1cc2c(CC3CCCC3)c(O)c(O)cc2c(O)c1-c1c(C)cc2c(CC3CCCC3)c(O)c(O)cc2c1O [Compound 12c]
75

Now for another entry.
Record `Cc1cc2c(C(=O)NCCc3cccc(Cl)c3)c(O)c(O)cc2c(O)c1-c1c(C)cc2c(C(=O)NCCc3cccc(Cl)c3)c(O)c(O)cc2c1O` , field Microsomal Stability (T = 1 h): 90

---

Measured on: BCL-XL (Homo sapiens)
Method notes: 1D 1H-NMR binding assay
Measurement setup: Table 9
Observation type: 1D ^1H-NMR Binding Assay (BCL-XL)

Known 1D ^1H-NMR Binding Assay (BCL-XL) results, listed for orientation:
CCC(C)C(=O)c1c(O)c(O)cc2c(O)c(-c3c(C)cc4c(C(=O)C(C)CC)c(O)c(O)cc4c3O)c(C)cc12 (centres unmarked)
+
CCCCC(=O)c1c(O)c(O)cc2c(O)c(-c3c(C)cc4c(C(=O)CCCC)c(O)c(O)cc4c3O)c(C)cc12
+
Cc1cc2c(C(=O)Cc3cccc(Br)c3)c(O)c(O)cc2c(O)c1-c1c(C)cc2c(C(=O)Cc3cccc(Br)c3)c(O)c(O)cc2c1O
++
Cc1cc2c(C(=O)Cc3ccccc3)c(O)c(O)cc2c(O)c1-c1c(C)cc2c(C(=O)Cc3ccccc3)c(O)c(O)cc2c1O
+++
Cc1cc2c(C(=O)c3ccc(C(C)(C)C)cc3)c(O)c(O)cc2c(O)c1-c1c(C)cc2c(C(=O)c3ccc(C(C)(C)C)cc3)c(O)c(O)cc2c1O
−
CCCCC(CC)CC(=O)c1c(O)c(O)cc2c(O)c(-c3c(C)cc4c(C(=O)CC(CC)CCCC)c(O)c(O)cc4c3O)c(C)cc12 (centres unmarked)
+
Cc1cc2c(C(=O)Cc3ccc(OC(F)(F)F)cc3)c(O)c(O)cc2c(O)c1-c1c(C)cc2c(C(=O)Cc3ccc(OC(F)(F)F)cc3)c(O)c(O)cc2c1O
++
Cc1cc2c(C(=O)C(C)(C)C)c(O)c(O)cc2c(O)c1-c1c(C)cc2c(C(=O)C(C)(C)C)c(O)c(O)cc2c1O
++

Record `Cc1cc2c(C(=O)CC3CCCCC3)c(O)c(O)cc2c(O)c1-c1c(C)cc2c(C(=O)CC3CCCCC3)c(O)c(O)cc2c1O` , field 1D ^1H-NMR Binding Assay (BCL-XL): +

Record `Cc1cc2cc(O)c(O)cc2c(O)c1-c1c(C)cc2cc(O)c(O)cc2c1O` , field 1D ^1H-NMR Binding Assay (BCL-XL): +

Record CC(=O)O.Cc1cc2c(C(C)C)c(O)c(O)c(C=O)c2c(O)c1-c1c(C)cc2c(C(C)C)c(O)c(O)c(C=O)c2c1O [Gossypol, reference compound] , field 1D ^1H-NMR Binding Assay (BCL-XL): ++

---

Tested on: H460 human lung cell line
Method notes: Cell viability, ATP-LITE assay
Type: cell-based
Measurement setup: ATP-LITE assay; read-out: EC50 H460
Observation type: pEC50
Hey, just a heads up that pEC50 is the negative log base 10 of the concentration in molar.

Measured on H460 human lung cell line, Cc1cc2c(C(C)C)c(O)c(O)cc2c(O)c1-c1c(C)cc2c(C(C)C)c(O)c(O)cc2c1O [Apogossypol, reference compound] has a documented pEC50 of 5.46
